# testSystem: CXCR3 (Homo sapiens)
# Construct: host or cells: CHO-K1 (cAMP Hunter CHOK1 CXCR3 Gi cell line)
# Sequence (P49682 whole entry): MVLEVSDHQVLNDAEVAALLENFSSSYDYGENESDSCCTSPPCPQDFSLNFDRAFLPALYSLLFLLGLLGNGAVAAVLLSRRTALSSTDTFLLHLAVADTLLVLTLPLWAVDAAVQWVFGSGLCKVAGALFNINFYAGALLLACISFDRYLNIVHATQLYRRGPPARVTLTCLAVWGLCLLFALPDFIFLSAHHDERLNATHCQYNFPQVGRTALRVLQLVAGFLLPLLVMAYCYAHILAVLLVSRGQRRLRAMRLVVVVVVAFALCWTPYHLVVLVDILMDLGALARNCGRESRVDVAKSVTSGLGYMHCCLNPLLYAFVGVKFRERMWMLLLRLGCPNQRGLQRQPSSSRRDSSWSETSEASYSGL
# procedureDetails: CXCR3 cAMP agonist assay (cAMP Hunter CHOK1 CXCR3 Gi cell line, forskolin-stimulated, HitHunter cAMP detection)
# Assay type: cell-based
# runParameters: cAMP Hunter CHOK1 CXCR3 Gi cells, 20 μM forskolin, 30 minutes; read-out: Activity (CXCR3 cAMP agonist assay compound EC50)
pEC50: −log10 of the molar value.
propertyMeasured: pEC50

Cc1cc(NC(=O)[C@H](CCN)NC(=O)[C@@H]2Cc3ccccc3CN2C(=O)CCC(=O)c2ccccc2)c(F)cc1Cl yielded pEC50 of > 7.30

Cc1cc(NC(=O)[C@H](CCNS(C)(=O)=O)NC(=O)[C@@H]2Cc3ccccc3CN2C(=O)CCC(=O)N2CCCCC2)ccc1Cl yielded pEC50 of > 7.30

Cc1cc(NC(=O)[C@H](CCN)NC(=O)[C@@H]2Cc3ccccc3CN2C(=O)CCC(=O)N2CCCC2(C)C)ncc1Cl yielded pEC50 of > 7.30

Cc1cc(NC(=O)[C@H](CCNC(C)C)NC(=O)[C@@H]2Cc3ccccc3CN2C(=O)CCC(=O)c2ccccc2)ccc1Cl yielded pEC50 of > 7.30

NCC[C@H](NC(=O)[C@@H]1Cc2ccccc2CN1C(=O)CCC(=O)c1ccccc1)C(=O)Nc1cc(Cl)c(Cl)cn1 yielded pEC50 of 6.30 to 6.60

NCC[C@H](NC(=O)[C@@H]1Cc2ccccc2CN1C(=O)CCC(=O)N1CCCCC12CCC2)C(=O)Nc1ccc(Cl)c(Cl)c1F yielded pEC50 of > 7.30

###

# testSystem: CXCR3 (Homo sapiens)
# Construct: host or cells: CHO-K1 (cAMP Hunter CHOK1 CXCR3 Gi cell line)
# procedureDetails: CXCR3 cAMP agonist assay (cAMP Hunter CHOK1 CXCR3 Gi cell line, forskolin-stimulated, HitHunter cAMP detection)
# Type: cell-based
propertyMeasured: EC50

Cc1cc(NC(=O)[C@H](CCN)NC(=O)[C@@H]2Cc3ccccc3CN2C(=O)CCC(=O)N2CCC(=O)CC2)ccc1Cl yielded EC50 of 250 to 500 nM

###

# procedureDetails: Mouse pharmacokinetics after oral gavage, plasma drug concentration by LC-MS/MS (C57BL/6)
# Type: in vivo, C57bl/6 mice
# runParameters: C57BL/6, 60 mg/kg, female mice
Exercise: state measured apparent oral clearance (CL/F) for each of the compounds provided.
Value expressed in mL/min/kg; do not type the unit.

CC1(C)CCCN(C(=O)CCC(=O)N2Cc3ccccc3C[C@H]2C(=O)N[C@@H](CCN)C(=O)Nc2ccc(Cl)c(Cl)c2F)C1 [Compound 15-6] yielded apparent oral clearance (CL/F) of 90

O=C(CCC(=O)N1Cc2ccccc2C[C@H]1C(=O)NC1(C(=O)Nc2ccc(Cl)c(Cl)c2F)CCNCC1)c1ccccc1 [Compound 4-14] yielded apparent oral clearance (CL/F) of 16

NCC[C@H](NC(=O)[C@@H]1Cc2ccccc2CN1C(=O)CCC(=O)N1CCCC2(CCC2)C1)C(=O)Nc1ccc2c(c1)CCC2 [Compound 10-8] yielded apparent oral clearance (CL/F) of 431

CC1(C)CCCCN1C(=O)CCC(=O)N1Cc2cc(F)ccc2C[C@H]1C(=O)N[C@@H](CCN)C(=O)Nc1ccc(Cl)c(Cl)c1F [Compound 15-62] yielded apparent oral clearance (CL/F) of 1100

NCC[C@H](NC(=O)[C@@H]1Cc2ccccc2CN1C(=O)CCC(=O)N1CCCC12CCC2)C(=O)Nc1ccc(Cl)c(Cl)c1F [Compound 12-152] yielded apparent oral clearance (CL/F) of 190

Cc1cccc(NC(=O)[C@H](CCN)NC(=O)[C@@H]2Cc3ccccc3CN2C(=O)CCC(=O)c2ccccc2)c1C [Compound 2-49] yielded apparent oral clearance (CL/F) of 131

NCC[C@H](NC(=O)[C@@H]1Cc2ccc(F)cc2CN1C(=O)CCC(=O)c1ccccc1)C(=O)Nc1ccc(Cl)c(Cl)c1F [Compound 27-7] yielded apparent oral clearance (CL/F) of 92
